# target: soluble TPO-R (UniProt P40238)
# Sequence (P40238 26-491): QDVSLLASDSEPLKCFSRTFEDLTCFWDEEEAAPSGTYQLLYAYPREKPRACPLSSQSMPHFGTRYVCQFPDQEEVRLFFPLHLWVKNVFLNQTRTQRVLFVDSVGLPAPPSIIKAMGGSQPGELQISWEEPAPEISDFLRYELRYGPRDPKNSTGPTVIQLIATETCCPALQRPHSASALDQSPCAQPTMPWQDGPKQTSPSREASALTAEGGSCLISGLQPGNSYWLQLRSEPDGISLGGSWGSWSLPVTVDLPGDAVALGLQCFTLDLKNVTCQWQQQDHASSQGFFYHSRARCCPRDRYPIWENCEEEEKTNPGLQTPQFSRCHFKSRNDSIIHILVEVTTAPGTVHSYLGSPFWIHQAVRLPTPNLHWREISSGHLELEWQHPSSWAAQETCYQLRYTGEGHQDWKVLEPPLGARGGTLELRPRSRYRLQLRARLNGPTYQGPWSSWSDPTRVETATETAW
# assayInfo: competition ELISA vs MBP-TPO156
pIC50: −log10 of the molar value. Bridges are numbered along the chain shown (N, C = ends). Where no end group is shown, it is not given here. [ ]: non-standard residue; d: D form. 1Nal = N[C@@H](Cc1cccc2ccccc12)C(=O)O; 2Thi = N[C@@H](Cc1cccs1)C(=O)O; Cha = N[C@@H](CC1CCCCC1)C(=O)O
# maps each entry to its pIC50
measurementName: pIC50

INSERT INTO assay_data (binder, inequalitysign, obsvalue) VALUES
  ('ADGPTLREWISFC (not fully specified; also: further groups not given here) [[drawing CHEM-US-00006] (SEQ ID NO:173)]', '=', 3.70),
  ('CADGPTLREWIS[Cha]C (disulfide 1-14 (inferred); not fully specified) [SEQ ID NO:12 cyclized, F - CHA]', '>', 6.30),
  ('PTLREWISFC (not fully specified; also: further groups not given here) [[drawing CHEM-US-00041] (SEQ ID NO:191)(SEQ ID NO:191)]', '=', 3.70),
  ('CADGPTLREWIS[1Nal]C (disulfide 1-14 (inferred); not fully specified) [SEQ ID NO:12 cyclized, F - (1-Nal)]', '>', 6.30),
  ('CADGPTLREWIS[2Thi]C (disulfide 1-14 (inferred); not fully specified) [SEQ ID NO:12 cyclized, F - Thi]', '>', 6.30);
